# Protocol Details: Acute toxicity (Litchfield & Wilcoxon method)
# Stated Conditions: rat, in vivo, po, P.O., female; 95% confidence limits
Quantity: LD50 (mg/kg)
Give bare numbers, in mg/kg.

According to the records, this compound CCc1cc(S(=O)(=O)O)c2cc(C(C)C)cccc1-2 displays LD50 of 1200

----------
# Protocol Details: Acute toxicity (Litchfield & Wilcoxon method)
# Stated Conditions: rat, in vivo, po, P.O., male; 95% confidence limits
Quantity: LD50 (mg/kg)
One number for each entry, in mg/kg.

Note to self: LD50 recorded for CCc1cc(S(=O)(=O)O)c2cc(C(C)C)cccc1-2 was 1000
